B1: Peroxisome proliferator-activated receptor delta, residues 71 to 145; numbered along this chain, Q03181 (parent)
chain: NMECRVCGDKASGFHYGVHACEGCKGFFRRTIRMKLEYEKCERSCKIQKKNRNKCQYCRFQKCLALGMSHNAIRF

Variants of: B1
EXPERIMENT_NOTES: abundance fitness (aPCA) (normalised: wild type 0, dead -1); higher = more abundant; growth selection in yeast, the domain comes from the species named
MEASUREMENT_CONDITIONS: Homo sapiens
PROPERTY_LABEL: abundance fitness
One number for each entry.

Some solved cases for reference:
VAR	EXPERIMENTAL_RESULT
G26P	-1.02
A72F	-0.27
M34A	-0.112
F60P	-0.802
R30D	0.026
N51R	-0.395
S44A	-0.045
C21L	-0.942

Go through the items and report each one's abundance fitness.
1. G67E
2. A20I
3. F14H
4. R5D
5. K10G
6. A65V
7. F60W

*A*
1. -0.525
2. -0.023
3. -0.098
4. 0.032
5. -0.191
6. -0.075
7. -0.003

Go through the items and report each one's abundance fitness.
1. K50M
2. R33V
3. L36M

*A*
1: 0.034; 2: 0.072; 3: -0.05

Go through the items and report each one's abundance fitness.
1. R29C
2. N1G
3. R43C

*A*
1: -0.009; 2: -0.212; 3: -0.138
